Quick reference: residual activity of the listed items.
subject of test: PAK1 (human)
test description: radiometric filter-binding kinase assay, Kinase HotSpot
measurement context: compound 0.5 µM; ATP 10 µM
Report the figure in % without appending any unit label.

Recorded residual activity, per entry:
compound | residual activity / %
CS(=O)c1ccc(-c2nc(-c3ccc(F)cc3)c(-c3ccncc3)[nH]2)cc1 (stereo not given) | 99.2
CCCNC(=O)Nc1ccc(Oc2ncnc3cc(OC)c(OC)cc23)cc1Cl | 93.8
O=c1cc(-c2cccc3c2Sc2ccccc2S3)oc(N2CCOCC2)c1 | 92.3
COc1ccc(-c2cnc3c(-c4ccsc4)cnn3c2)cc1 | 97

Could you now look at the following compound, please?
Report residual activity for CC(C)[C@H](CO)Nc1nc(Nc2cccc(Cl)c2)c2ncn(C(C)C)c2n1 tested on PAK1 (human).
92.8

---

subject of test: SRMS (human)
test description: radiometric filter-binding kinase assay, Kinase HotSpot
measurement context: compound 0.5 µM; ATP 10 µM
Listed compounds paired with reported residual activity
Supply the numeric figure in %, leaving out any unit text.

A selection of reference data follows.
compound | residual activity [%]
Cc1ccc(NC(=O)c2ccc(CN3CCN(C)CC3)cc2)cc1Nc1nc(-c2cccnc2)cs1 | 92.9
O=C(NC(NC(=S)Nc1ccc(F)c([N+](=O)[O-])c1)C(Cl)(Cl)Cl)C(c1ccccc1)c1ccccc1 (stereo unspecified) | 96.9
CS(=O)c1ccc(-c2nc(-c3ccc(F)cc3)c(-c3ccncc3)[nH]2)cc1 (stereo unspecified) | 102
CC(C)n1cnc2c(Nc3cccc(Cl)c3)nc(NCCO)nc21 | 85.1
CCN1/C(=C/C(C)=O)Sc2ccc(OC)cc21 | 84.7

Look up residual activity for this compound: Nc1nc(Nc2ccc(S(N)(=O)=O)cc2)nn1C(=S)Nc1c(F)cccc1F
94

Try CCCNC(=O)Nc1ccc(Oc2ncnc3cc(OC)c(OC)cc23)cc1Cl next.
105

Would you mind doing Cc1cc2ncc(-c3ccccc3)nc2cc1C as well?
93.5

Follow-up item: Nc1nc(Nc2ccc(S(N)(=O)=O)cc2)nn1C(=O)c1c(F)cccc1F
96.5

Then NC(=O)c1ccc(N(C(N)=O)c2c(F)cccc2F)nc1-c1ccc(F)cc1F ?
92.9

Same question for CSc1nc(-c2ccc(F)cc2)c(-c2ccnc(NC(C)c3ccccc3)c2)[nH]1 (stereo unspecified) please.
104

What about Oc1ccc(-c2nc(-c3ccc(F)cc3)c(-c3ccncc3)[nH]2)cc1 ?
102

---

Quick reference: residual activity of the listed items.
subject of test: CDK9 CCNT1 (human) (UniProt P50750+O60563)
Sequence (O60563 whole entry, looked up): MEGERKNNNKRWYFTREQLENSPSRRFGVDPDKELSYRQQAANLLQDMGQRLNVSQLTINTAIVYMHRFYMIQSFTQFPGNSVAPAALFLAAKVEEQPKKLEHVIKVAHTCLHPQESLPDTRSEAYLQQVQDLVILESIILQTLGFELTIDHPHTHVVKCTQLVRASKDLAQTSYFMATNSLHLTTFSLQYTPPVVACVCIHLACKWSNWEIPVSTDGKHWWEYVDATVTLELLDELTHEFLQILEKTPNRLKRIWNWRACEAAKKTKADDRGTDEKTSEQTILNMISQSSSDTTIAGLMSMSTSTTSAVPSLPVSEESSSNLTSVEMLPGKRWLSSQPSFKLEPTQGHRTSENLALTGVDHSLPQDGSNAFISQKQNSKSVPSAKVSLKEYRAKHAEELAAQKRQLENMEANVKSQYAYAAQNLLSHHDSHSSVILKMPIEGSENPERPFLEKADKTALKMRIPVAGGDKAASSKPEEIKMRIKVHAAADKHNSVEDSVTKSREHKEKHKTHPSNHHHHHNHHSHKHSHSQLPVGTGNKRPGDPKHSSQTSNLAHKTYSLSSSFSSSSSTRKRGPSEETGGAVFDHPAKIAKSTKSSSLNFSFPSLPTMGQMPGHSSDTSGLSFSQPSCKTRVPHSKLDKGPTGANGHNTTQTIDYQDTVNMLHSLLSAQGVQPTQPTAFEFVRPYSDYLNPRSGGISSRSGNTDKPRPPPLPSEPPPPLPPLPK
Sequence (P50750 whole entry, looked up): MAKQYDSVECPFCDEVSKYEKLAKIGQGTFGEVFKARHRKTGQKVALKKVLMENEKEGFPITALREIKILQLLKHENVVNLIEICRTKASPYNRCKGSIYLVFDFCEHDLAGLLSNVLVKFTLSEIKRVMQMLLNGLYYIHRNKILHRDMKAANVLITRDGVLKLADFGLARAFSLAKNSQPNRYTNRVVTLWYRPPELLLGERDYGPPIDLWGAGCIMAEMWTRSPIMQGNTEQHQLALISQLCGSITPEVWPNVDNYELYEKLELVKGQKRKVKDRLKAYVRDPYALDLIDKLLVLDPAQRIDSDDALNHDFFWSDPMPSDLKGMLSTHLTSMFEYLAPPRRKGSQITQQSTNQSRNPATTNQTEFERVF
test description: radiometric filter-binding kinase assay, Kinase HotSpot
measurement context: compound 0.5 µM; ATP 10 µM
Report the value in % with no unit label.

chemical string | units | experimental value
COc1ccc(-c2cnc3c(-c4ccsc4)cnn3c2)cc1 | % | 73.8

Recorded residual activity of NC(=O)c1ccc(N(C(N)=O)c2c(F)cccc2F)nc1-c1ccc(F)cc1F , please.
96.7

Try this molecule too: Nc1nc(Nc2ccc(S(N)(=O)=O)cc2)nn1C(=O)c1c(F)cccc1F
27.6

Consider next the molecule CC(C)n1cnc2c(Nc3cccc(Cl)c3)nc(NCCO)nc21 in the same way.
87.4

Now give it for CCOc1nc(NC(=O)Cc2cc(OC)ccc2OC)cc(N)c1C#N too.
100

Also Cc1cc2ncc(-c3ccccc3)nc2cc1C ?
93.9

Let us now turn to CC(C)(C)c1nc2c3ccc(F)cc3c3c(=O)[nH]ccc3c2[nH]1
100

Nc1nc(Nc2ccc(S(N)(=O)=O)cc2)nn1C(=S)Nc1c(F)cccc1F ?
15.6
